Biological target: transforming growth factor β1 (TGFβ1) (UniProt P01137 279-390)
Sequence (P01137 279-390 limits assumed): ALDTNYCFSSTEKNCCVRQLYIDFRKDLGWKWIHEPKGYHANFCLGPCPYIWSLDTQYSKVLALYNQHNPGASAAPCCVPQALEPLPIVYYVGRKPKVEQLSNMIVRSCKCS
Test: BioVeris ECL competition with a labeled competitor; negative control for TGFβ binding
pIC50: −log10 of the molar value.
Quantity: pIC50

**Q:** Kindly indicate its recorded pIC50. Item: FGFps2-Q-BBIt-FGF-5 (designed binder, also called BBIt-FGFps2-Q-A13I-L29P-F50T-V52A) DPDDESSKPCCDQCICTKSNPPQCRCSDMRPNSCHSACKSCACTWIDSTPCTCADITDFCYEPCKPSE
**A:** < 3.60
